# Tested on: MOOVA (Monochoria)
# measurement.description: Preemergence weed control under flooded paddy conditions
# Format: in vivo, Monochoria vaginalis
# measurement.conditions: 0.1250 kg/ha, rated 3-4 weeks after treatment
value.type: herbicidal effect rating, MOOVA

Solved cases (2 shown):
1) Cc1cccc(CN2C(=O)CSC2=Nc2cc(-n3c(=O)cc(C(F)(F)F)n(C)c3=O)c(F)cc2Cl)c1	6.0
2) CCOC(=O)CN1C(=O)C(SC)SC1=Nc1cc(-n2c(=O)cc(C(F)(F)F)n(C)c2=O)c(F)cc1Cl (centres unmarked)	7.0

// herbicidal effect rating, MOOVA (MOOVA (Monochoria)) for C=CCN1C(=O)C(CC(=O)NS(=O)(=O)C(C)C)SC1=Nc1cc(-n2c(=O)cc(C(F)(F)F)n(C)c2=O)c(F)cc1Cl (centres unmarked) = 6.0

Query `Cn1c(C(F)(F)F)cc(=O)n(-c2cc(N=C3SCC(=O)N3Cc3ccc(S(N)(=O)=O)cc3)c(Cl)cc2F)c1=O` on MOOVA (Monochoria); herbicidal effect rating, MOOVA returned: 9.0

Entry CCOC(=O)CN1C(=O)C(CC(=O)NS(=O)(=O)C(C)C)SC1=Nc1cc(-n2c(=O)cc(C(F)(F)F)n(C)c2=O)c(F)cc1Cl (centres unmarked) , tested on MOOVA (Monochoria), has a reported herbicidal effect rating, MOOVA of 9.0

* * *

# Test system: ORYSAT (Rice, Tebonnet)
# measurement.description: Postemergence herbicidal evaluation
# Format: in vivo, Oryza sativa, (L.) Tebonnet
# measurement.conditions: postemergence, rate 0.0315 kg/ha
value.type: herbicidal rating ORYSAT
Answer field: number only, no words.

Solved entries:
1. C=CCOC(=O)CN1C(=O)CSC1=Nc1cc(-n2c(=O)cc(C(F)(F)F)n(C)c2=O)c(F)cc1Cl	2.5
2. Cn1c(C(F)(F)F)cc(=O)n(-c2cc(N=C3SCC(=O)N3CC(=O)OCC#N)c(Cl)cc2F)c1=O	4.5
3. CCCCOC(=O)CN1C(=O)CSC1=Nc1cc(-n2c(=O)cc(C(F)(F)F)n(C)c2=O)c(F)cc1Cl	4.5

Here is the next item to consider.
Quick note, herbicidal rating ORYSAT for CCOC(=O)CN1C(=O)C(CC(=O)O)SC1=Nc1cc(-n2nc(C)n(C(F)F)c2=O)c(F)cc1Cl (stereo not shown) landed at 2.0

* * *

# Tested on: ORYSAT (Rice, Tebonnet)
# measurement.description: Rice tolerance to post-transplant applications, flooded paddy conditions (Table III)
# Format: in vivo, Oryza sativa, (L.) Tebonnet
# measurement.conditions: in vivo
Quick reference: herbicidal effect rating, ORYSAT (rice tolerance) of the listed items.
Simply state the number, no unit and no words.

1) Cn1c(C(F)(F)F)cc(=O)n(-c2cc(N=C3SCC(=O)N3Cc3ccc(S(N)(=O)=O)cc3)c(Cl)cc2F)c1=O	0.0
2) COc1ccc(CN2C(=O)CSC2=Nc2cc(-n3c(=O)cc(C(F)(F)F)n(C)c3=O)c(F)cc2Cl)cc1OC	2.0
3) Cn1c(C(F)(F)F)cc(=O)n(-c2cc(N=C3SCC(=O)N3Cc3ccc(Br)cc3)c(Cl)cc2F)c1=O	0.0

Next compound, herbicidal effect rating, ORYSAT (rice tolerance) to be filled in.
Looking up `CSCCN1C(=O)CSC1=Nc1cc(-n2c(=O)cc(C(F)(F)F)n(C)c2=O)c(F)cc1Cl` , I found its herbicidal effect rating, ORYSAT (rice tolerance) recorded as 0.0

* * *

# Test system: ECHORC (Watergrass (Calif.))
# measurement.description: Preemergence weed control under flooded paddy conditions
# Type: in vivo, Echinochloa oryzoides
# measurement.conditions: 0.0313 kg/ha, rated 3-4 weeks after treatment
value.type: herbicidal effect rating, ECHORC
// return a plain number; no unit text

Answered examples (4):
1. CCOC(=O)CN1C(=O)CSC1=Nc1cc(N2C(=O)CC(C(F)(F)F)CC2=O)c(F)cc1Cl	0.0
2. Cn1c(C(F)(F)F)cc(=O)n(-c2cc(N=C3SCC(=O)N3Cc3ccc(S(N)(=O)=O)cc3)c(Cl)cc2F)c1=O	7.0
3. Cn1c(C(F)(F)F)cc(=O)n(-c2cc(N=C3SCC(=O)N3Cc3ccc(Br)cc3)c(Cl)cc2F)c1=O	6.0
4. COCCN1C(=O)CSC1=Nc1cc(-n2c(=O)cc(C(F)(F)F)n(C)c2=O)c(F)cc1Cl	4.0

For `COC(=O)CSCCN1C(=O)CSC1=Nc1cc(-n2c(=O)cc(C(F)(F)F)n(C)c2=O)c(F)cc1Cl` on ECHORC (Watergrass (Calif.)), measured herbicidal effect rating, ECHORC was 9.0

Item: CCOC(=O)CN1C(=O)C(C(=O)OCC)SC1=Nc1cc(-n2c(=O)cc(C(F)(F)F)n(C)c2=O)c(F)cc1Cl (stereo not shown) | System: ECHORC (Watergrass (Calif.)) | herbicidal effect rating, ECHORC: 4.0

herbicidal effect rating, ECHORC value, target or system ECHORC (Watergrass (Calif.)), for CN1C(=O)C(CC(=O)NO)SC1=Nc1cc(-n2c(=O)cc(C(F)(F)F)n(C)c2=O)c(F)cc1Cl (stereo not shown) : 6.0

* * *

# Test system: TRZAWR (Wheat, Winter, cv Riband)
# measurement.description: Postemergence herbicidal evaluation
# Assay type: in vivo, Triticum aestivum
# measurement.conditions: postemergence, rate 0.0630 kg/ha
value.type: TRZAWR herbicidal rating
Please reply with the number alone, leaving off any unit.

1. C=CCN1C(=O)C(CC(=O)OC(C)C(=O)OCC)SC1=Nc1cc(-n2c(=O)ccn(C)c2=O)c(F)cc1Cl (stereo not shown)	8.0
2. COC(=O)[C@H](Cc1ccccc1)N1C(=O)CS/C1=N/c1cc(-n2c(=O)cc(C(F)(F)F)n(C)c2=O)c(F)cc1Cl	4.5
3. CCOC(=O)CN1C(=O)C(=C(C)C)S/C1=N/c1cc(-n2c(=O)cc(C(F)(F)F)n(C)c2=O)c(F)cc1Cl	4.0
4. Cn1c(C(F)(F)F)cc(=O)n(-c2cc(N=C3SCC(=O)N3C3CCOC3=O)c(Cl)cc2F)c1=O (stereo not shown)	5.0
5. CCOC(=O)C(c1ccc(Cl)cc1)N1C(=O)CSC1=Nc1cc(-n2c(=O)cc(C(F)(F)F)n(C)c2=O)c(F)cc1Cl (racemic)	5.0

# TRZAWR herbicidal rating (compound: CCOC(=O)CN1C(=O)C(CC(=O)OCCF)SC1=Nc1cc(-n2c(=O)cc(C(F)(F)F)n(C)c2=O)c(F)cc1Cl (stereo not shown) ) is 8.5

The measured TRZAWR herbicidal rating associated with CN1C(=O)C(CC(N)=O)SC1=Nc1cc(-n2c(=O)cc(C(F)(F)F)n(C)c2=O)c(F)cc1Cl (stereo not shown) reads 6.5

* * *

# System: CHEAL (Lambsquarters, Common)
# measurement.description: Postemergence herbicidal evaluation
# Format: in vivo, Chenopodium album
# measurement.conditions: postemergence, rate 0.0315 kg/ha
A collection of compounds and their measured herbicidal rating CHEAL
Form field (numeric): enter value without unit.

The cases that follow already have their herbicidal rating CHEAL on record.
1. C=CCN1C(=O)C(CC(=O)NS(=O)(=O)C(C)C)SC1=Nc1cc(-n2c(=O)cc(C(F)(F)F)n(C)c2=O)c(F)cc1Cl (stereo not shown)	0.0
2. COCCOC(=O)CN1C(=O)CSC1=Nc1cc(-n2c(=O)cc(C(F)(F)F)n(C)c2=O)c(F)cc1Cl	2.0
3. CCOC(=O)CN1C(=O)C(Cc2ccccc2OC(C)C(=O)O)S/C1=N/c1cc(-n2c(=O)cc(C(F)(F)F)n(C)c2=O)c(F)cc1Cl (stereo not shown)	6.0

Let's switch to this compound now.
Sample `Cn1c(C(F)(F)F)cc(=O)n(-c2cc(N=C3SCC(=O)N3CC(=O)OCC#N)c(Cl)cc2F)c1=O` ; herbicidal rating CHEAL observed: 9.0

* * *

# Test system: CYPIR (Rice Flatsedge)
# measurement.description: Postemergence weed control under flooded paddy conditions
# Type: in vivo, Cyperus iria
# measurement.conditions: rate 0.0625 kg/ha, postemergence weeds, 3-4 weeks after treatment
The entries below are paired with their reported Herbicidal rating CYPIR.
# answer = number (no unit)

Guide cases for Herbicidal rating CYPIR, answers given:
1. CCOC(=O)CN1C(=O)C(CC(=O)O)O/C1=N/c1cc(-n2c(=O)cc(C(F)(F)F)n(C)c2=O)c(F)cc1Cl (stereo not shown)	0.0
2. CN1C(=O)CSC1=Nc1cc(N2C(=O)C3=C(CCCC3)C2=O)c(F)cc1Cl	3.5
3. COC(=O)CN1C(=O)CSC1=Nc1cc(-n2c(=O)cc(C(F)(F)F)n(C)c2=O)c(F)cc1Cl	0.0

# ---- query compound ----
Measured Herbicidal rating CYPIR, CCOC(=O)COc1ccccc1CC1S/C(=N/c2cc(-n3c(=O)cc(C(F)(F)F)n(C)c3=O)c(F)cc2Cl)N(CC(=O)OCC)C1=O (stereo not shown) : 0.0
